Molecular target: GII.6 (AF414410) VLPs (norovirus GII.6)
Test: VLP-PGM blockade
pEC50: −log10 of the molar value.

BINDER	pEC50
NORO-168.2 (antibody, V domains shown) VH: QVQLVESGGGVVQPGRSLRLSCAASGFTFSSYAMHWVRQAPGKGLEWVAVISYDGSNKYYADSVKGRFTISRDNSKNTLYLQMNSLRAEDTAVYYCARSVIGYYYYGMDVWGQGTLVTVSS VL: QPVLTQPPSASASLGASVTLTCTLSSGYSNYKVDWYQQRPGKGPRFVMRVGTGGIVGSKGDGIPDRFSVLGSGLNRYLTIKNIQEEDESDYHCGADHGSGILFGGGTKLTVL	8.15
NORO-202A.1 (antibody, V domains shown) VH: QVQLVQSGAEVKKPGASVKVSCKASEYTFTGYYLQWVRQAPGHGLEWMGWINPSGGTKYSQKFQGRVTMTRDTSITTVYMELSRLRSDDTAVYYCARDLLRNWGDHDAFDVWGQGTMVTVSS VL: QSVLTQPPSASETPGQGVTISCSGSSSNIGSNFVCWYQQVPGTAPKLLIYKNNQRPSGVPDRFSGSKSGTSASLAISGLRSEDEADYYCSAWDDSLSGPVFGGGTKLTVL	7.33
NORO-156.3 (antibody, V domains shown) VH: QVQLQQWGAGLLKPSETLSLTCAVYGGSFSGYYWSWIRQPPGKGLEWIGEINHSGSTNYNPSLKSRVTISVDTSKNQFSLKLSSVTAADTAVYYCARGLMDVWGQGTLVTVSS VL: AIRMTQSPSSFSASTGDRVTITCRASQGISSYLAWYQQKPGKAPKLLIYAASTLQSGVPSRFSGSGSGTDFTLTISCLQSEDFATYYCQQYYSYPRTFGQGTKLEIK	6.45
NORO-279A (antibody, V domains shown) VH: QVQLVESGGGVVQPGRSLRLSCAASGFTFTKYGMHWVRQAPGKGLEWVAFIAYDGSVKYYGDSAKGRFAISRDNPKNTVYLQMNSLRAEDTAVYYCAKVEIHYYSNSLLGMDVWGQGTLVTVSS VL: QSVLTQPPSASGTPGQRVTISCSGGNSNIGISYVYWYQHLPGTAPKLLISKNNLRPSGVPDRFSASKSGTSASLAISGLRSEDEAEYYCATLDINMTWVFGGGTKLTVL	7.49
